# experiment_description: NCI Yeast Anticancer Drug Screen. Data for the cln2 rad14 strain (AID 165);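 further: 0% = growth equal to vehicle treated cultures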
# experimental_setup: S. cerevisiae cln2 rad14 strain, at 5.0 µM (retest, dose inferred, filed as 0.5), hits give high values
Compounds without any hit were thinned out: in the full panel of roughly 79,000, 15% have a hit. Active and inactive are the calls of the source. No stated cut-off is given here; in the data, active means growth inhibition above about 70%; inactive means the rest.
recorded_endpoint: growth inhibition

Please give growth inhibition, item by item, for the list that follows.
1. CN1C=Cc2ccccc2C1C(C1c2ccccc2C=CN1C)[N+](=O)[O-] (stereo not given)
2. CC1=NC(C)C(C)S1 (stereo not given)
3. CCCCCCC/C=C/C(=O)OC1C(OC2C(OC(CCCCCCC)CC(=O)OC(CCCCCCC)CC(=O)O)OC(C)C(O)C2O)OC(C)C(O)C1O (stereo not given)
4. Nc1ccc(-c2ccc(N)cc2S(=O)(=O)O)c(S(=O)(=O)O)c1
5. O=S(=O)(Nc1ccccc1)c1ccccc1C=C(c1ccccc1)c1ccccc1

["2% (inactive)", "4% (inactive)", "-40% (inactive)", "-2% (inactive)", "13% (inactive)"]

Please give growth inhibition, item by item, for the list that follows.
1. CC1(C)OC2OC(/C=C/[N+](=O)[O-])C3OC(C)(C)OC3C2O1 (stereo not given)
2. O=c1oc(-c2ccccc2Br)ns1
3. CC(=O)OC(C)C1C2=C(C(=O)CC1(C)O)C(=O)c1c(ccc(-c3ccc4c(c3O)C(=O)C3=C(C4=O)C(C(C)OC(C)=O)C(C)(O)CC3=O)c1O)C2=O (stereo not given)

1. 17% (inactive)
2. 4% (inactive)
3. 12% (inactive)
